System: MS2 coat protein
MEASUREMENT_DESCRIPTION: apparent KD of MS2 coat protein; designed switch direction (-1 OFF switch, 1 ON switch): 1; higher = weaker reporter binding
RUN_PARAMETERS: input ligand: microRNA oligo, concentration not stated
# apparent KD of MS2 coat protein values compiled below

CHAIN_SEQUENCE: AGAUCAUGACGAGGAUAUGGUACAUGAGGAUCACCCAUGUAUGUACCACGACGGAAACGUCGAAUCCAGAAGGCGUCAUGAUCA [Mat - Same State NG 2 - JL mod - D24] (Eterna round: R96, puzzle: Same State NG 2)
TARGET: MS2 coat protein
apparent KD of MS2 coat protein, nM: 109
//
CHAIN_SEQUENCE: GCUCUGGCGGUAGGAUAUCUAGGAUAUGGGAAAGACUAAGUCUGUAGGUCACCUAACCCAGAAGGAGAGAAGGACCCUGUAAGG [pwkr ssNG2 2FMN + F9.23] (Eterna round: R96, puzzle: Same State NG 2)
TARGET: MS2 coat protein
apparent KD of MS2 coat protein, nM: 17.2
//
CHAIN_SEQUENCE: GAGUAGUUGAAAGGAUAUAGAUUAUUGUAGGAUCUAGAAGGUUCUAACAUGAGGAUCACCCAUGUAGGACUAUUCCUGUGUAUC [Parity 88 - Jieux - Same State NG 1] (Eterna round: R96, puzzle: Same State NG 1)
TARGET: MS2 coat protein
apparent KD of MS2 coat protein, nM: 9.27
//
CHAIN_SEQUENCE: AUAUGAGAAGCAGGAUAUGUGGAGAAGAAACAAACAGAAGGGUUUAUGGGACAACAUGAGGAUCACCCAUGUUCUCUGUGAUGA [AK SSNG1-V2-2] (Eterna round: R96, puzzle: Same State NG 1)
TARGET: MS2 coat protein
apparent KD of MS2 coat protein, nM: 44.3
